Attribution: paper PMC12748989

Property: Average (percentage cell inhibition), Mastoparan PBMC; scope: individual molecules
Test system: PBMC
Details: 12.5 µM
Please state the figure in %; there is no need to write the unit.

Would you please look over these solved cases?
CC[C@H](C)[C@H](N)C(=O)N[C@@H](CC(N)=O)C(=O)N[C@@H](CC(C)C)C(=O)N[C@@H](CCCCN)C(=O)N[C@@H](C)C(=O)N[C@@H](CC(C)C)C(=O)N[C@@H](C)C(=O)N[C@@H](C)C(=O)N[C@@H](CC(C)C)C(=O)N[C@@H](C)C(=O)N[C@@H](CCCCN)C(=O)N[C@@H](CCCCN)C(=O)N[C@@H](Cc1c[nH]c2ccccc12)C(=O)N[C@@H](CC(C)C)C(N)=O = 24.9289
CC[C@H](C)[C@H](N)C(=O)N[C@@H](CC(N)=O)C(=O)N[C@@H](CC(C)C)C(=O)N[C@@H](CCCCN)C(=O)N[C@@H](C)C(=O)N[C@@H](CC(C)C)C(=O)N[C@@H](C)C(=O)N[C@@H](C)C(=O)N[C@@H](CC(C)C)C(=O)N[C@@H](C)C(=O)N[C@@H](CCCCN)C(=O)N[C@@H](CCCCN)C(=O)N[C@H](C(=O)N[C@@H](Cc1ccc(O)cc1)C(N)=O)[C@@H](C)CC = -0.4376

Would you kindly look at the next entry?
[Q] Returns the measured Average (percentage cell inhibition), Mastoparan PBMC for the input molecule. Input: `CC[C@H](C)[C@H](N)C(=O)N[C@@H](CC(N)=O)C(=O)N[C@@H](CC(C)C)C(=O)N[C@@H](CCCCN)C(=O)N[C@@H](C)C(=O)N[C@@H](CC(C)C)C(=O)N[C@@H](C)C(=O)N[C@@H](C)C(=O)N[C@@H](CC(C)C)C(=O)N[C@@H](C)C(=O)N[C@@H](CCCCN)C(=O)N[C@@H](CO)C(=O)N[C@H](C(=O)N[C@@H](CC(C)C)C(N)=O)[C@@H](C)CC`
[A] 1.96
